// provenance: patent US9580416B2

# Target: UniProt:P06239
# Sequence (P06239 whole entry, species assumed): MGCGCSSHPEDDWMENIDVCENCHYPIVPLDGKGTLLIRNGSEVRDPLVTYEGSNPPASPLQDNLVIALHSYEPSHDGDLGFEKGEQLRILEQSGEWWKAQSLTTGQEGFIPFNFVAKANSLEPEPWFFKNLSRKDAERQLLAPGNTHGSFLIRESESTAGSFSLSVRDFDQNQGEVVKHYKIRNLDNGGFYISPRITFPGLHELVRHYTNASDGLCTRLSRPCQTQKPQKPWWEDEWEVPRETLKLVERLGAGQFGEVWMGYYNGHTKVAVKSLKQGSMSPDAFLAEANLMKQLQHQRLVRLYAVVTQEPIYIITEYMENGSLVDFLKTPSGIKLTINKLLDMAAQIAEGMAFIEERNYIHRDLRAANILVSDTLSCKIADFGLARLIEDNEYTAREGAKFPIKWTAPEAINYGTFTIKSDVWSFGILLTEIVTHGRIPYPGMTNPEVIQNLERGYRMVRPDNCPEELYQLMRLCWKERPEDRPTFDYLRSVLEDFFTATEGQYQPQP
# Protocol: Lck kinase activity, TR-FRET assay
# Type: biochemical
# Experimental Conditions: read-out: LCK (IC50)
Recorded Endpoint: IC50

Study these solved cases before continuing.
• C=CC(=O)N1CCC[C@@H](Nc2n[nH]c3nccc(Oc4ccc(C(=O)Nc5cc(C)n(C)n5)cc4)c23)C1 [compound 159] = > 10000 nM
• CN(C/C=C/C(=O)N1CCC[C@@H](Nc2n[nH]c3nccc(Oc4ccc(Oc5ccccc5)cc4)c23)C1)C1CC1 [compound 8] = < 100 nM
• COc1ccnc(NC(=O)c2ccc(Oc3ccnc4[nH]nc(N[C@@H]5CCN(C(=O)/C=C/CN(C)C6CC6)C5)c34)cc2)c1 [compound 58] = 1000 to 10000 nM
• CN(C)C/C=C/C(=O)N1CC[C@@H](Nc2n[nH]c3nccc(Oc4ccc(Oc5ccccc5)cc4S(N)(=O)=O)c23)C1 [compound 25] = 100 to 1000 nM
• C=CC(=O)N1CCC[C@@H](Nc2n[nH]c3nccc(Oc4ccc(C(=O)Nc5cc(C)on5)cc4)c23)C1 [compound 178] = > 10000 nM
• CN(C)C/C=C/C(=O)N1CC[C@@H](Nc2n[nH]c3nccc(Oc4ccc(-c5ncco5)c(Cl)c4)c23)C1 [compound 16] = 1000 to 10000 nM
• N#Cc1ccnc(NC(=O)c2ccc(Oc3ccnc4[nH]nc(NC5CCOCC5)c34)cc2)c1 [compound 77] = 100 to 1000 nM
• N#Cc1ccnc(NC(=O)c2ccc(Oc3ccnc4[nH]nc(N[C@H]5CC[C@H](O)CC5)c34)cc2)c1 [compound 82] = 100 to 1000 nM
• CC#CC(=O)N1CCC[C@@H](Nc2n[nH]c3nccc(Oc4ccc(C(=O)Nc5cc(C)n(C)n5)cc4)c23)C1 [compound 185] = > 10000 nM
• O=C(Nc1cc(C(F)(F)F)ccn1)c1ccc(Oc2ccnc3[nH]nc(N[C@@H]4CCN(C(=O)C5CC5)C4)c23)cc1 [compound 215] = 1000 to 10000 nM

Reported IC50 ( Cc1ccnc(NC(=O)c2ccc(Oc3ccnc4[nH]nc(N[C@@H]5CCCN(C(=O)c6ncco6)C5)c34)cc2)c1 [compound 240] ) = 100 to 1000 nM

Reported IC50 ( CN(C/C=C/C(=O)N1CCC[C@H]1CNc1n[nH]c2nccc(Oc3ccc(Oc4ccccc4)cc3)c12)C1CC1 [compound 36] ) = < 100 nM

###

# Target: Btk (Homo sapiens)
# Sequence (Q06187 whole entry): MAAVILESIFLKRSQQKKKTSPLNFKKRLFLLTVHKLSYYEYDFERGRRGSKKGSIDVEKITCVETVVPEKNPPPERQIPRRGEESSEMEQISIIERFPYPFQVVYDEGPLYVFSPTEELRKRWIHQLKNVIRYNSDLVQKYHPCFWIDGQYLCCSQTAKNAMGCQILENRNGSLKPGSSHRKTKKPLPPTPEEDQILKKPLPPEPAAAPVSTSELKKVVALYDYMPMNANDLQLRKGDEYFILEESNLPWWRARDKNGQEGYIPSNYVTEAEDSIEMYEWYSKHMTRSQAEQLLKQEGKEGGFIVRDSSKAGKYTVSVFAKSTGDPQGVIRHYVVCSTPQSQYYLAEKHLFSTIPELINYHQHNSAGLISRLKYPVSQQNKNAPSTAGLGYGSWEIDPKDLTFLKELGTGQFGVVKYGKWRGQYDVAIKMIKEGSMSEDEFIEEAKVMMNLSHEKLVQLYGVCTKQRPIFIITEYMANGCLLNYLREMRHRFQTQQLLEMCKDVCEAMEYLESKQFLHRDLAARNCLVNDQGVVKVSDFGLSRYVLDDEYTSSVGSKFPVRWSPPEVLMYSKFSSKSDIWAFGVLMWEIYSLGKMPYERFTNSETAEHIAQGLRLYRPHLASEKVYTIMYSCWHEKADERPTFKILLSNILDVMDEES
# Protocol: Btk kinase activity, TR-FRET assay
# Format: biochemical
# Experimental Conditions: read-out: Btk (IC50)
pIC50: −log10 of the molar value.
Recorded Endpoint: pIC50

Study these solved cases before continuing.
- CCC(=O)N1CC[C@@H](Nc2n[nH]c3nccc(Oc4ccc(C(=O)Nc5nccn5C)cc4)c23)C1 [compound 73]: < 5.00
- Cc1cnc(NC(=O)c2ccc(Oc3ccnc4[nH]nc(C5CCCN(C(=O)C6CC6)C5)c34)cc2)s1 (stereo not shown) [compound 193]: 6.00 to 7.00
- Cc1ccnc(NC(=O)c2ccc(Oc3ccnc4[nH]nc(NC5CCN(C(=O)C6(C#N)CC6)CC5)c34)cc2)c1 [compound 277]: 6.00 to 7.00

Reported pIC50 ( C=CC(=O)N1CCC[C@@H](Nc2n[nH]c3nccc(Oc4ccc(-c5nc6ccccc6o5)cc4)c23)C1 [compound 194] ) = > 7.00

Reported pIC50 ( CCNC(=O)N1CCC[C@@H](Nc2n[nH]c3nccc(Oc4ccc(Oc5ccccc5)cc4C)c23)C1 [compound 235] ) = > 7.00

Reported pIC50 ( C=CC(=O)N1CC[C@@H](Nc2c[nH]c3nccc(Oc4ccc(Cl)cc4)c23)C1 [compound 7] ) = > 7.00

Reported pIC50 ( N#Cc1cc(Nc2n[nH]c3nccc(Oc4ccc(Oc5ccccc5)cc4)c23)ccn1 [compound 30] ) = 5.00 to 6.00
